Sourced from the supplement of paper PMC6607015

# Test system: HeLa MZ
# PROTOCOL_NOTES: filipin (cholesterol) integrated intensity within LBPA endosomes, Z-score; higher = more cholesterol in LBPA endosomes
# CONDITION_DESCRIPTION: compound concentration in added solution (µM; 5 µl added to 20 µl cells): 10; 18 h
Counter-ions that a name gives are not always drawn.
Hi there, I'd appreciate the recorded filipin (z-score) for every entry that follows.
One number for each entry.

Solved cases (3 shown):
C[C@H]1C[C@@H]2[C@H]([C@@H](O)C[C@@]3(C)[C@H]2CC[C@]3(O)C(=O)CO)[C@@]2(C)C=CC(=O)C=C12 :: -0.497
CN(CCOc1ccc(CC2SC(=O)NC2=O)cc1)c1ccccn1 (centres undefined) [Rosiglitazone Hydrochloride] :: -0.0127
CC/C(=C(/CC)c1ccc(O)cc1)c1ccc(O)cc1 :: -0.493

Exercise: Entry CCN(CC)CCNC(=O)c1cc(S(C)(=O)=O)ccc1OC [Tiapride hydrochloride] has what filipin (z-score)?
Solution: -0.513
